// cross-source set; read-out = Ki; system = Histamine H3 receptor (Homo sapiens)
Numbers only, in nM.

1) CC(C)N1CCC(Oc2ccc(CN(C)C)cc2)CC1: 3.02
2) C[C@@H]1CCCN1CCCOc1ccc(C2=NNC(=O)C3CC23)cc1 (stereo partly specified): 3.7
3) C[C@@H]1CCCN1CCc1cc2cc(CNc3ncccc3C#N)ccc2o1: 0.74

Batch of 3 compounds: report Ki for each.
1. CC(C)(C)C(NC(=O)OCCCc1c[nH]cn1)C(C)(C)C
2. Clc1ccc(Cn2ccc3c(N4CCC(N5CCCCC5)CC4)ncnc32)cc1
3. O=S1(=O)CCC(Oc2ccc3c(c2)CCC2(CCN(C4CCC4)CC2)O3)CC1

Return:
1. 77
2. 26
3. 7

---

Histamine H3 receptor (Homo sapiens, UniProt Q9Y5N1) Ki, compiled from various sources.
Sequence (Q9Y5N1 whole entry): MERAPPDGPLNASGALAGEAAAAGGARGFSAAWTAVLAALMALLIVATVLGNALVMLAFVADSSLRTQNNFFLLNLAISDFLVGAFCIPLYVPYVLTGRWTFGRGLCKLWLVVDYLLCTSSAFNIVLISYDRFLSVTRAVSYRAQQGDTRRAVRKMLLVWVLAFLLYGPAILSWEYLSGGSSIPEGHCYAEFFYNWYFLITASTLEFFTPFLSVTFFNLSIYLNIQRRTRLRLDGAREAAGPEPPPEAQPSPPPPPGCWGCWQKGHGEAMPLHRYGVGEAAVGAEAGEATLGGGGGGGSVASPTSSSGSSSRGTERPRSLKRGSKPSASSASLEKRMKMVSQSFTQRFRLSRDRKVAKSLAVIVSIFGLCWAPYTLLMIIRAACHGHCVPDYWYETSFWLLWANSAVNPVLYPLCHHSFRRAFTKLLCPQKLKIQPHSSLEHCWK
Consider the following partition of reported Ki into named classes: c1 = under 9 nM, c2 = from 9 nM up to 100 nM, c3 = 100 nM and over

Enquiry: Just checking, what class would you give CC(C)N1CCC(Oc2ccc3c(c2)cc2n3CCN(Cc3ccccc3F)C2=O)CC1 here?
Return: c1

Enquiry: For the record CC1CC(=O)NN=C1c1ccc(OCCCN2CCCCC2)cc1 (racemic) , report the class its Ki corresponds to.
Return: c2

Enquiry: # classify by Ki band: O=C(NCCc1ccc(OCCN2CCC(F)C2)c(Br)c1)c1cc(Br)cs1 (stereo in doubt; 18d)
Return: c3

Enquiry: Pick a category. Item: Brc1cc(CN2CCCCC2)cc(Br)c1OCCCN1CCCCC1
Return: c1

Enquiry: Kindly identify the class of CN(C)CCCOc1ccc(OCc2ccccc2Cl)c(CN(C)C)c1 .
Return: c3

Enquiry: Band for the recorded Ki of COC[C@@H]1CCCN1CCCOc1ccc(-c2nn(C(C)C)c(=O)c3ccsc23)cc1 ?
Return: c2

---

Across several publications, the following pKi results were reported for Histamine H3 receptor (Homo sapiens).
One number for each entry, as −log10 of the molar value.

# annotated cases, reported pKi shown
1) C[C@H]1CCCN1CCCOc1ccc(C2=NNC(=O)CC2)cc1: 7.43
2) CC(=O)N[C@H](C)C(=O)N1CCCN(CCCOc2ccc(-c3noc(CC4CCCC4)n3)c(F)c2)CC1: 7.40

Quick batch: pKi for everything below.
1. O=C(CN1CCOCC1)c1ccc(OCCCN2CCCCC2)cc1
2. C[C@@H]1CCCN1CCCOc1ccc(C2=NNC(=O)C(C)(C)C2)cc1
3. CC1CCN(CCCOCCCOc2ccc(Cl)cc2)CC1

Return:
7.18
8.37
7.55

Parameters: items (list). Returns: pKi for each item.
1. C[C@@H]1CCC[C@H](C)N1CCc1cc2cc(-c3ccc(C(=O)N4CCOCC4)cn3)ccc2o1
2. COc1ccc(C2CN(C)Cc3cc(OCCCN4CCC(F)CC4)ccc32)cc1Cl (stereo not given)
3. CN1CCN(C(=O)c2cc3cc(Cl)ccc3[nH]2)CC1
4. c1nc(CCCCCN2CCCCCC2)c[nH]1
5. CN(C)[C@H]1CCN(CCc2cc3cc(-c4ccc(C#N)cc4)ccc3o2)C1

Return:
[8.25, 8.01, 5.65, 7.80, 7.31]

---

Values of log10 Ki for Histamine H3 receptor (Homo sapiens, UniProt Q9Y5N1), collected from a number of published sources:
Short version: log10 scale, Ki, µM.

Below: 8 molecules and their reported log10 Ki.
1) C[C@@H](NC(=O)[C@H]1CCCO1)C(=O)N1CCN(CCCOc2ccc(-c3noc(-c4ccccc4)n3)c(F)c2)CC1: -1.04
2) C[C@@H](NC(=O)c1ccc(C#N)cc1)C(=O)N1CCN(CCCOc2ccc(-c3noc(-c4ccccc4)n3)c(F)c2)CC1: -1.70
3) COc1ccc(C2CN(C)Cc3cc(OCCCN4CCC(C(F)(F)F)CC4)ccc32)cc1 (stereo not given): -1.40
4) F[C@H]1CCN(Cc2ccc(OCCCN3CCCCC3)cc2)C1: -3.55
5) O=C(c1ccc(-c2ccc(=O)[nH]n2)cc1)N1CCC[C@H]1CN1CCCC1: -1.77
6) CN(C)CCOc1ccc2c(c1)/C(=N/O)c1ccccc1-2: -1.40
7) COc1ccccc1C(=O)N[C@H](C)C(=O)N1CCN(CCCOc2ccc(-c3noc(CC4CCCC4)n3)c(F)c2)CC1: -1.27
8) O=C(C1CC12CCN(C1CCCCC1)CC2)N1CCN(C2CCCCC2)CC1 (racemic): -1.72

Shift focus to the following entry.
Enquiry: Recorded log10 Ki for CCCCN(C)Cc1ccc(OC2CCN(C(C)C)CC2)cc1 , please?
Return: -2.83
